The reader will find reported viability, T/C values listed item by item below.
# Test system: 885724-159-R-J1-PDC complex spheroid viability
# protocol summary: Anticancer human tumor 885724-159-R-J1-PDC patient-derived pancreatic adenocarcinoma cell line growth inhibition [POLQ]
# test conditions: second compound 3.16 µM; first compound 10 µM; hits give low values
parameter: viability, T/C (%)

• O=C(c1cc(Cc2n[nH]c(=O)c3ccccc23)ccc1F)N1CCN(C(=O)C2CC2)CC1 + Cc1cccc(N(C)C(=O)C2C(O)CCN2c2nc(C)cc(C(F)(F)F)c2C#N)c1 = 82.9
• CCc1cc2c(N3CCc4c(cc(Cn5ccnc5)cc4-c4cn(C)nc4C(F)(F)F)C3=O)cc(C)nc2c(OC)n1 + COC1C(OC(N)=O)C(O)C(Oc2ccc3c(O)c(NC(=O)c4ccc(O)c(CC=C(C)C)c4)c(=O)oc3c2C)OC1(C)C = 75.2
• C=CC(=O)N1CCN(c2nc(=O)n(-c3c(C)ccnc3C(C)C)c3nc(-c4c(O)cccc4F)c(F)cc23)C(C)C1 (stereo not drawn) + COC1C(OC(N)=O)C(O)C(Oc2ccc3c(O)c(NC(=O)c4ccc(O)c(CC=C(C)C)c4)c(=O)oc3c2C)OC1(C)C = 104

----------
# System: 885724-159-R-J1-PDC complex spheroid viability
# protocol summary: Anticancer human tumor 885724-159-R-J1-PDC cell line growth inhibition [POLQ];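 also: spheroids exposed to compounds for 7 days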
# test conditions: second compound 0.1 µM; first compound 10 µM; hits give low values
Parameter: viability, T/C. Scope: all listed entries.
parameter: viability, T/C (%)

- C=CC(=O)N1CCN(c2nc(=O)n(-c3c(C)ccnc3C(C)C)c3nc(-c4c(O)cccc4F)c(F)cc23)C(C)C1 (stereo not given) + Nc1ccc(C#CCN(C(=O)Cc2ncc(C(F)(F)F)cc2C(F)(F)F)c2ccc(F)cc2)nn1: 94
- CC1COCCN1c1cc(C2(O)CC3CCC(C2)O3)c2cnn(-c3ccn[nH]3)c2n1 (stereo not given) + COC1C(OC(N)=O)C(O)C(Oc2ccc3c(O)c(NC(=O)c4ccc(O)c(CC=C(C)C)c4)c(=O)oc3c2C)OC1(C)C: 24.7
- COc1ccc([C@@H](O)c2cc(-c3ncnc4cc(N5CCOCC5)ccc34)c(F)cc2Cl)nn1 + Nc1ccc(C#CCN(C(=O)Cc2ncc(C(F)(F)F)cc2C(F)(F)F)c2ccc(F)cc2)nn1: 32.9
- CNCc1ccc(-c2[nH]c3cc(F)cc4c3c2CCNC4=O)cc1 + Nc1ccc(C#CCN(C(=O)Cc2ncc(C(F)(F)F)cc2C(F)(F)F)c2ccc(F)cc2)nn1: 85.6
- CCc1cc2c(N3CCc4c(cc(Cn5ccnc5)cc4-c4cn(C)nc4C(F)(F)F)C3=O)ccnc2c(OC)n1 + Cc1cccc(N(C)C(=O)C2C(O)CCN2c2nc(C)cc(C(F)(F)F)c2C#N)c1: 63.8
- COc1cc2cc(C(=O)CCC(=O)O)sc2cc1OC + Cc1cccc(N(C)C(=O)C2C(O)CCN2c2nc(C)cc(C(F)(F)F)c2C#N)c1: 103
- CNCc1ccc(-c2[nH]c3cc(F)cc4c3c2CCNC4=O)cc1 + Cc1cccc(N(C)C(=O)C2C(O)CCN2c2nc(C)cc(C(F)(F)F)c2C#N)c1: 83.2
- CC1COCCN1c1cc(C2(S(C)(=N)=O)CC2)nc(-c2ccnc3[nH]ccc23)n1 (stereo not given) + COC1C(OC(N)=O)C(O)C(Oc2ccc3c(O)c(NC(=O)c4ccc(O)c(CC=C(C)C)c4)c(=O)oc3c2C)OC1(C)C: 47
- CCCS(=O)(=O)Nc1ccc(F)c(C(=O)c2c[nH]c3ncc(-c4ccc(Cl)cc4)cc23)c1F + COC1C(OC(N)=O)C(O)C(Oc2ccc3c(O)c(NC(=O)c4ccc(O)c(CC=C(C)C)c4)c(=O)oc3c2C)OC1(C)C: 67.8
- CCc1cc2c(N3CCc4c(cc(Cn5ccnc5)cc4-c4cn(C)nc4C(F)(F)F)C3=O)cc(C)nc2c(OC)n1 + COC1C(OC(N)=O)C(O)C(Oc2ccc3c(O)c(NC(=O)c4ccc(O)c(CC=C(C)C)c4)c(=O)oc3c2C)OC1(C)C: 70.4

----------
# System: 885724-159-R-J1-PDC complex spheroid viability
# protocol summary: Anticancer human tumor 885724-159-R-J1-PDC cell line growth inhibition [POLQ];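 also: spheroids exposed to compounds for 7 days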
# test conditions: second compound 0.0316 µM; first compound 0.1 µM; hits give low values
# Protocol: Multicellular complex tumor spheroid response to Polymerase (POL) inhibitors (novobiocin, ART-558, RP6685) in combination with a variety of drugs and investigational agents in selected tumor cell lines The POL inhibitors (novobiocin, ART-558, and RP6685) were evaluated both individually and in combination with standard of care and investigational anticancer small molecules within a complex spheroid model of solid tumors. . […]
In this section we review reported viability, T/C values for a set of molecules.
parameter: viability, T/C (%)

* C=CCn1c(=O)c2cnc(Nc3ccc(N4CCN(C)CC4)cc3)nc2n1-c1cccc(C(C)(C)O)n1 + Nc1ccc(C#CCN(C(=O)Cc2ncc(C(F)(F)F)cc2C(F)(F)F)c2ccc(F)cc2)nn1 | 67.8
* CCc1cc2c(N3CCc4c(cc(Cn5ccnc5)cc4-c4cn(C)nc4C(F)(F)F)C3=O)cc(C)nc2c(OC)n1 + Cc1cccc(N(C)C(=O)C2C(O)CCN2c2nc(C)cc(C(F)(F)F)c2C#N)c1 | 82
* Cn1ncnc1[C@H]1c2n[nH]c(=O)c3cc(F)cc(c23)N[C@@H]1c1ccc(F)cc1 + Cc1cccc(N(C)C(=O)C2C(O)CCN2c2nc(C)cc(C(F)(F)F)c2C#N)c1 | 87.5

----------
# Tested on: 885724-159-R-J1-PDC complex spheroid viability
# protocol summary: Anticancer human tumor 885724-159-R-J1-PDC cell line growth inhibition [POLQ];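 also: spheroids exposed to compounds for 7 days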
# test conditions: second compound 0.1 µM; first compound 10 µM; hits give low values
Hi! Could you tag entries with viability, T/C below 70% as Fulfilled, and those at or above as Not fulfilled? Much appreciated.

• CC1COCCN1c1cc(C2(S(C)(=N)=O)CC2)nc(-c2ccnc3[nH]ccc23)n1 (stereo not given) + Nc1ccc(C#CCN(C(=O)Cc2ncc(C(F)(F)F)cc2C(F)(F)F)c2ccc(F)cc2)nn1 = Fulfilled
• CNCc1ccc(-c2[nH]c3cc(F)cc4c3c2CCNC4=O)cc1 + COC1C(OC(N)=O)C(O)C(Oc2ccc3c(O)c(NC(=O)c4ccc(O)c(CC=C(C)C)c4)c(=O)oc3c2C)OC1(C)C = Not fulfilled
• O=C(c1cc(Cc2n[nH]c(=O)c3ccccc23)ccc1F)N1CCN(C(=O)C2CC2)CC1 + COC1C(OC(N)=O)C(O)C(Oc2ccc3c(O)c(NC(=O)c4ccc(O)c(CC=C(C)C)c4)c(=O)oc3c2C)OC1(C)C = Not fulfilled
• CC1COCCN1c1cc(C2(S(C)(=N)=O)CC2)nc(-c2ccnc3[nH]ccc23)n1 (stereo not given) + Cc1cccc(N(C)C(=O)C2C(O)CCN2c2nc(C)cc(C(F)(F)F)c2C#N)c1 = Fulfilled
• O=c1[nH]cc(F)c(=O)[nH]1 + COC1C(OC(N)=O)C(O)C(Oc2ccc3c(O)c(NC(=O)c4ccc(O)c(CC=C(C)C)c4)c(=O)oc3c2C)OC1(C)C = Fulfilled

----------
# Test system: 885724-159-R-J1-PDC complex spheroid viability
# protocol summary: Anticancer human tumor 885724-159-R-J1-PDC cell line growth inhibition [POLQ];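 also: spheroids exposed to compounds for 7 days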
# test conditions: second compound 10 µM; first compound 0.0316 µM; hits give low values
# strict inequality: viability, T/C < 90% yields Fulfilled, everything else yields Not fulfilled

* O=C(c1cc(Cc2n[nH]c(=O)c3ccccc23)ccc1F)N1CCN(C(=O)C2CC2)CC1 + Nc1ccc(C#CCN(C(=O)Cc2ncc(C(F)(F)F)cc2C(F)(F)F)c2ccc(F)cc2)nn1 | Not fulfilled
* CCc1c2c(nc3ccc(O)cc13)-c1cc3c(c(=O)n1C2)COC(=O)[C@]3(O)CC + Cc1cccc(N(C)C(=O)C2C(O)CCN2c2nc(C)cc(C(F)(F)F)c2C#N)c1 | Fulfilled
* O=C(Nc1ccc(O)c(NS(=O)(=O)c2ccc(F)cc2)c1)c1ccc(-c2ccccc2)cc1 + COC1C(OC(N)=O)C(O)C(Oc2ccc3c(O)c(NC(=O)c4ccc(O)c(CC=C(C)C)c4)c(=O)oc3c2C)OC1(C)C | Not fulfilled
* O=C(c1cc(Cc2n[nH]c(=O)c3ccccc23)ccc1F)N1CCN(C(=O)C2CC2)CC1 + Cc1cccc(N(C)C(=O)C2C(O)CCN2c2nc(C)cc(C(F)(F)F)c2C#N)c1 | Not fulfilled
* CC1COCCN1c1cc(C2(O)CC3CCC(C2)O3)c2cnn(-c3ccn[nH]3)c2n1 (stereo unspecified) + COC1C(OC(N)=O)C(O)C(Oc2ccc3c(O)c(NC(=O)c4ccc(O)c(CC=C(C)C)c4)c(=O)oc3c2C)OC1(C)C | Fulfilled
* CC1COCCN1c1cc(C2(O)CC3CCC(C2)O3)c2cnn(-c3ccn[nH]3)c2n1 (stereo unspecified) + Nc1ccc(C#CCN(C(=O)Cc2ncc(C(F)(F)F)cc2C(F)(F)F)c2ccc(F)cc2)nn1 | Fulfilled
* CC[C@@]1(O)C(=O)OCc2c1cc1n(c2=O)Cc2cc3c(CN(C)C)c(O)ccc3nc2-1 + COC1C(OC(N)=O)C(O)C(Oc2ccc3c(O)c(NC(=O)c4ccc(O)c(CC=C(C)C)c4)c(=O)oc3c2C)OC1(C)C | Fulfilled
* CCCS(=O)(=O)Nc1ccc(F)c(C(=O)c2c[nH]c3ncc(-c4ccc(Cl)cc4)cc23)c1F + Nc1ccc(C#CCN(C(=O)Cc2ncc(C(F)(F)F)cc2C(F)(F)F)c2ccc(F)cc2)nn1 | Not fulfilled
* CC1COCCN1c1cc(-c2ccnn2C)c2ccnc(-c3ccn[nH]3)c2n1 (stereo unspecified) + Cc1cccc(N(C)C(=O)C2C(O)CCN2c2nc(C)cc(C(F)(F)F)c2C#N)c1 | Fulfilled
* C#Cc1c(F)ccc2cc(O)cc(-c3ncc4c(N5CC6CCC(C5)N6)nc(OCC56CCCN5CC(F)C6)nc4c3F)c12 (stereo unspecified) + Nc1ccc(C#CCN(C(=O)Cc2ncc(C(F)(F)F)cc2C(F)(F)F)c2ccc(F)cc2)nn1 | Not fulfilled
